Taken from patent US8604021B2.

# assayedTarget: CYP3A4 (Homo sapiens)
# Sequence (P08684 whole entry): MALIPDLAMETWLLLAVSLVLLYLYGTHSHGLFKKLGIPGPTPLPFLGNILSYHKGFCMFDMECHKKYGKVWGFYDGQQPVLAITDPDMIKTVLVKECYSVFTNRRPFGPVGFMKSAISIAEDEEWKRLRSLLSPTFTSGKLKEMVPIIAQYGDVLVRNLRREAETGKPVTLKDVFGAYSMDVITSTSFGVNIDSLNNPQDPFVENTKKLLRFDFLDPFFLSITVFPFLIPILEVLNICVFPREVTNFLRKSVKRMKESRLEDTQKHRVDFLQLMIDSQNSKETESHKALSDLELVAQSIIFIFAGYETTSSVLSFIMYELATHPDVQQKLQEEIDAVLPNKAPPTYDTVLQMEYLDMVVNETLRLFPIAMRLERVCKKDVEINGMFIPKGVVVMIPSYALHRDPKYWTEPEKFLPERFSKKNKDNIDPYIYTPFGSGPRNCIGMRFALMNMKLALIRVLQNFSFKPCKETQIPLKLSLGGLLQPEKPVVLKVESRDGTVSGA
# assaySummary: CYP inhibition CYP3A4
pIC50: −log10 of the molar value.
attributeMeasured: pIC50

Record COc1cc(Cl)cc(C(C)Nc2cc(N3CCNCC3)ccc2S(C)(=O)=O)c1OC.Cl (stereo not shown) [Compound A, hydrochloride] / CYP3A4 (Homo sapiens), pIC50 recorded as < 5.12

* * *

# assayedTarget: 5-HT6 receptor (Homo sapiens, UniProt P50406)
# Sequence (P50406 whole entry): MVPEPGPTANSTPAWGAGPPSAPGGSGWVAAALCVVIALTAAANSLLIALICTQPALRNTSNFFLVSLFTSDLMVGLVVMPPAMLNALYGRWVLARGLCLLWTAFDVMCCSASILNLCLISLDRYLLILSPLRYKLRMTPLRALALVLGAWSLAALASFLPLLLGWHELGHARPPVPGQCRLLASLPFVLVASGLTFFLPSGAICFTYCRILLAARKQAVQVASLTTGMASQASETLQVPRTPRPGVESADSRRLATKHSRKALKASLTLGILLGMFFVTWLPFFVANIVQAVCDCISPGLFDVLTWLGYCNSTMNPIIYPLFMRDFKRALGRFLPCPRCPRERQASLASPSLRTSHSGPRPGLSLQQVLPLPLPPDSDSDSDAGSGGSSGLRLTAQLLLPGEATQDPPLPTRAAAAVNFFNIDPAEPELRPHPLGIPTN
# assaySummary: 5-HT6 receptor binding
# setupConditions: read-out: 5-HT6 Ki
Structures can show the parent of a compound that is named as a salt.
Measured Ki, listed per entry.
Kindly answer with a numeric value in nM, unit omitted.

Example compounds with recorded Ki:
CC(Nc1cc(N2CCNCC2)ccc1S(C)(=O)=O)c1ccccc1 (stereo not shown) [Compound B, hydrochloride] = 47
COc1cc(Cl)cc(C(C)Nc2cc(N3CCNCC3)ccc2S(C)(=O)=O)c1OC (single isomer, unassigned; (+)) [(+) isomer, hydrochloride] = 18
COc1cc(OC)cc(C(C)Nc2cc(N3CCNCC3)ccc2S(C)(=O)=O)c1.Cl (stereo not shown) [Compound D, hydrochloride] = 27

// switching to the query compound
Measured Ki, COc1cc(OC)cc(C(C)Nc2cc(N3CCNCC3)ccc2C(=O)C(F)(F)F)c1 (stereo not shown) [Compound C, hydrochloride] : 34

* * *

# assayedTarget: 5-HT6 receptor (Homo sapiens, UniProt P50406)
# assaySummary: 5-HT6 receptor binding
# setupConditions: read-out: 5HT6 binding class
attributeMeasured: Ki

Measured Ki, O=C1Cc2cc(CCN3CCN(c4nsc5ccccc45)CC3)c(Cl)cc2N1 [Ziprasidome, reference compound] : 0.011 to 0.1 µM

* * *

# assayedTarget: D1 (Homo sapiens, UniProt P21728)
# Sequence (P21728 whole entry): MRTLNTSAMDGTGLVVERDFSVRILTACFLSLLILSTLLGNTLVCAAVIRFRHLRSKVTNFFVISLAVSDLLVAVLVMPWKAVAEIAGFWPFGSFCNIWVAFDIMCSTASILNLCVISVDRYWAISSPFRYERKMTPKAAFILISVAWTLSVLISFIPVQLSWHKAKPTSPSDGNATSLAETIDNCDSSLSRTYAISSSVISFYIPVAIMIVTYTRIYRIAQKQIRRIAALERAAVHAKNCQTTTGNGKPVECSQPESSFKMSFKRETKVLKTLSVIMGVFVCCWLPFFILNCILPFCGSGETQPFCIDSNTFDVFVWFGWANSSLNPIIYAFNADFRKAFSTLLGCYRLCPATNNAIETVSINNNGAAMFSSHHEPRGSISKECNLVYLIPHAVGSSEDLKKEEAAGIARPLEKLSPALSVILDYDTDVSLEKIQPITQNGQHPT
# assaySummary: Compound Binding Profiles: D1
# setupConditions: read-out: D1 binding class
Where a name gives a salt, the structure may show the parent alone.
attributeMeasured: Ki

COc1cc(Cl)cc(C(C)Nc2cc(N3CCNCC3)ccc2S(C)(=O)=O)c1OC.Cl (centres unmarked) [Compound A, hydrochloride] = 100 to 1000 nM

Measured Ki, CC(Nc1cc(N2CCNCC2)ccc1S(C)(=O)=O)c1cc(Cl)cc2c1OCCO2 (centres unmarked) [Cpd. E, hydrochloride] : 100 to 1000 nM

* * *

# assayedTarget: UniProt:P11229
# Sequence (P11229 whole entry): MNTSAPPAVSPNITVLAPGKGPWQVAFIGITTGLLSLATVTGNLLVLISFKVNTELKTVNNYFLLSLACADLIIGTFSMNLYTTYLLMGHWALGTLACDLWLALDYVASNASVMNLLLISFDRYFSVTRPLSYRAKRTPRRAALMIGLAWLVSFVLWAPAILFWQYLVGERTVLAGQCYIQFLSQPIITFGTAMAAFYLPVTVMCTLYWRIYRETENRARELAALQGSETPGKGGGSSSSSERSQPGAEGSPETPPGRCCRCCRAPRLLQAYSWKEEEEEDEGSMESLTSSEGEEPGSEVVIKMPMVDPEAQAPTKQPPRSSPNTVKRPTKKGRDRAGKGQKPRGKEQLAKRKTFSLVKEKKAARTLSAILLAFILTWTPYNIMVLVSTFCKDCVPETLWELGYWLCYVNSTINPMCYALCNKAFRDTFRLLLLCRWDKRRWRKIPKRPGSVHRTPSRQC
attributeMeasured: Ki

Record O=C1Cc2cc(CCN3CCN(c4nsc5ccccc45)CC3)c(Cl)cc2N1 [Ziprasidome, reference compound] / UniProt:P11229, Ki recorded as < 10 nM

* * *

# assayedTarget: CYP2C19 (Homo sapiens)
# Sequence (P33261 whole entry): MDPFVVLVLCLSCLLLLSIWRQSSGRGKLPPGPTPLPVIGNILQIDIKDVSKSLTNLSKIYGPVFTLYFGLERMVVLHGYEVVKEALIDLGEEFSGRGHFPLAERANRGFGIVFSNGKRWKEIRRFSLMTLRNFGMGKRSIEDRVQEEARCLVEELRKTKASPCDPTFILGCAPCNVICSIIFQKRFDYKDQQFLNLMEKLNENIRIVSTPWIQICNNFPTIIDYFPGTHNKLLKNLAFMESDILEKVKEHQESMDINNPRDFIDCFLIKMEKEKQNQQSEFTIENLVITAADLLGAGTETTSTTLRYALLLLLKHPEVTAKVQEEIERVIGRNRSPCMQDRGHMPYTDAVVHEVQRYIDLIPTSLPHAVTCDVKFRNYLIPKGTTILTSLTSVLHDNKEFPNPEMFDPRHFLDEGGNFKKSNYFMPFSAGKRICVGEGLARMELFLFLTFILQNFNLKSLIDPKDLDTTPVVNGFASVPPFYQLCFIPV
# assaySummary: CYP inhibition CYP2C19
attributeMeasured: IC50

Measured IC50, COc1cc(Cl)cc(C(C)Nc2cc(N3CCNCC3)ccc2S(C)(=O)=O)c1OC.Cl (stereo not shown) [Compound A, hydrochloride] : > 7.5 µM

* * *

# assayedTarget: 5-HT6 receptor (Homo sapiens, UniProt P50406)
# assaySummary: 5-HT6 receptor binding
# setupConditions: 5-HT6 Ki
Structures can show the parent of a compound that is named as a salt.
attributeMeasured: pKi
Note: pKi values are expressed as the negative base-10 logarithm of concentration in M.

Measured pKi, COc1cc(Cl)cc(C(C)Nc2cc(N3CCNCC3)ccc2S(C)(=O)=O)c1OC (single isomer, unassigned; (-)) [(−) isomer, hydrochloride] : 8.35

* * *

# assaySummary: Oral pharmacokinetics in rodents
# setupConditions: in vivo, oral administration 5 mg/kg
attributeMeasured: bioavailability (%)
Kindly answer with a numeric value in %, unit omitted.

Measured bioavailability, COc1cc(Cl)cc(C(C)Nc2cc(N3CCNCC3)ccc2S(C)(=O)=O)c1OC.Cl (stereo not shown) [Compound A] : 38

* * *

# assayedTarget: 5HT2C (Homo sapiens)
# Sequence (P28335 33-458, species assumed): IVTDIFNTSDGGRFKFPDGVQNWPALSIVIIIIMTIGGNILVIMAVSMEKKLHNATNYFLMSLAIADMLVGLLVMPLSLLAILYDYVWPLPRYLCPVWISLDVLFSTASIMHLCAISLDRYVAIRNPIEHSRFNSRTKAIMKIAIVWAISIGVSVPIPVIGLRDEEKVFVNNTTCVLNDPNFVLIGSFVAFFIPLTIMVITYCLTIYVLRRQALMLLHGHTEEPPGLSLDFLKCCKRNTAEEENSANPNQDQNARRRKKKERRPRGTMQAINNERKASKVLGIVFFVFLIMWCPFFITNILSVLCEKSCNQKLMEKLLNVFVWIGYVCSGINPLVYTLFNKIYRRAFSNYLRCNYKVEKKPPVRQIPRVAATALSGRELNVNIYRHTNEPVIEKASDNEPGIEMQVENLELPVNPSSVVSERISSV
Counter-ions that a name gives are not always drawn.
attributeMeasured: pKi
Note: pKi values are expressed as the negative base-10 logarithm of concentration in M.

Record CC(Nc1cc(N2CCNCC2)ccc1S(C)(=O)=O)c1cc(Cl)cc2c1OCCO2 (stereo not shown) [Cpd. E, hydrochloride] / 5HT2C (Homo sapiens), pKi recorded as 7.92
